Test: FRG1 promoter luciferase signal modulators, primary screen, FRG1 inhibition for FSHD, cell-based, C2C12 myotubes, firefly/Renilla luciferase, luminescence (AID 1084)
Details: higher = more signal, called active from +8 up or from −8 down
So basically: z-score at 0.4 or higher? That is fulfilled. Lower than 0.4? That is not fulfilled.

QUERY: hey, is z-score for this one >= 0.4? `O=C1[C@H]2[C@H]3[C@H](O)[C@H](O)CC(=NOCc4ccccc4)[C@H]3CC[C@H]2C(=O)N1Cc1ccccc1`
RESULT: not fulfilled

QUERY: Please indicate if the recorded z-score for `O=C(NN=C1C[C@@H](O)[C@@H](O)[C@@H]2[C@@H]3C(=O)N(Cc4ccc5c(c4)OCO5)C(=O)[C@@H]3CC[C@H]12)OCc1ccccc1` meets or exceeds 0.4.
RESULT: not fulfilled

QUERY: Exam item: decide whether the reported z-score for `CCOC(=O)CCN1C(=O)[C@H]2[C@H]3[C@H](O)[C@H](O)CC(=NNC(=O)OCC)[C@@H]3CC[C@H]2C1=O` is at least 0.4.
RESULT: not fulfilled

QUERY: Does the compound `CCCNC(=O)OC[C@H]1O[C@H](CCON=C(C)CCN2CCc3nc(-c4ccccc4)c(-c4ccccc4)cc3C2)C=C[C@@H]1Oc1ccc(OC)cc1` have recorded z-score that is 0.4 or more?
RESULT: not fulfilled

QUERY: Assess whether reported z-score for CCOC(=O)[C@H](Cc1ccccc1)NC(=O)CCC1CC(OC(=O)NCc2cccc3ccccc23)CC2(CCCC(COC(=O)NCCCN3CCCC3=O)O2)O1 (stereo partly drawn) sits at 0.4 or higher.
RESULT: not fulfilled

QUERY: Assess whether reported z-score for `CCCNC(=O)OC[C@H]1O[C@H](CCON=C(C)CCC(=O)OC[C@H]2O[C@H](C#Cc3ccccc3)C=C[C@@H]2Oc2ccc(C)cc2)C=C[C@@H]1Oc1ccc(OC)cc1` sits at 0.4 or higher.
RESULT: fulfilled

QUERY: Check the entry `C[C@@H](ON=C1[C@H]2CCn3c(=O)n(-c4ccccc4)c(=O)n3[C@H]2[C@H](O)[C@@H]2O[C@H]12)c1cn([C@H](CO)Cc2ccccc2)nn1` : does z-score equal or exceed 0.4?
RESULT: fulfilled

----------
Experiment: E. coli acrAB mutant growth effects, primary screen, E. coli filamentation inducers, strain DRC39, OD650, 24 h (AID 1178);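 further: growth measured as culture turbidity by optical density at 650 nm; test concentration not given here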
Conditions: higher = more signal, called active from +8 up or from −8 down
Measured z-score, listed per entry for reference.
Reply briefly: the number, and no unit.

Known z-score results, listed for orientation:
                                   compound  testresult
0  Cc1cc2c(nc1C)CCCN2CC(C)ON=C[C@@H](C)[C@H](OCc1ccccc1)C(C)C (stereo not given in full)     -0.0901
1  C[C@@H]1CC[C@@H](C(=O)O)N[C@H]1c1ccc(-c2ccco2)cc1       0.127

Lab book: z-score of `CO[C@@H]1C=CCC(=O)N2CCC[C@H]2C(=O)OC[C@H](C)C(=O)OC[C@H]1C` noted as 1.08

Just so you know, measured z-score for `CC(C)=NOC[C@@H](O)COCc1ccco1` came out at 0.745

Entry `CC(=O)OC[C@H]1O[C@H](C#CC(C)(C)C)C=C[C@@H]1OC(C)=O` — recorded z-score = 0.545

----------
Test: A549 cell viability effects, profiling panel, calcein-AM fluorescence, 48 h, basal (AID 1162); further: test concentration not given here
Conditions: higher = more signal
Mark class 0 for z-score values under 0.4, and class 1 for everything at or above.

Would you please look over these solved cases?
In [3]: df
Out[3]:
                                   compound  labelvalue
0  CCOC(=O)[C@H](Cc1ccccc1)NC(=O)CCC1CC(OC(=O)NCc2cccc3ccccc23)CC2(CCCC(COC(=O)NCCCN3CCCC3=O)O2)O1 (some centres undefined)     class 1
1  CO[C@H]1COC(=O)CC=C[C@@H](C)COC(=O)[C@@H](OCc2ccccc2)C=C[C@@H]1C     class 1
2  CCN1C(=O)[C@H]2[C@H]3[C@H](O)[C@H](O)CC(=NOC)[C@@H]3CC[C@H]2C1=O     class 0
3  CC(C)CON=C1C[C@@H](O)[C@@H](O)[C@@H]2[C@@H]3C(=O)N(c4cccc(Oc5ccccc5)c4)C(=O)[C@@H]3CC[C@H]12     class 0
4  CC(=O)OC[C@H]1O[C@H](C#CC(C)(C)C)C=C[C@@H]1OC(C)=O     class 0

Please turn your attention to the following entry.
QUERY: Could you tell me if the measured z-score of `CCCNC(=O)OC[C@H]1O[C@H](CCON=C(C)CCC(=O)OC[C@H]2O[C@H](C#Cc3ccccc3)C=C[C@@H]2Oc2ccc(C)cc2)C=C[C@@H]1Oc1ccc(OC)cc1` reaches 0.4 or more?
RESULT: class 0

----------
Assay: anti-His antibody binders, primary screen, artefact control for SMM control protein annotation, biochemical, small-molecule microarray, 635 nm fluorescence (AID 1128);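 further: score merges feature fluorescence with signal-to-noise for each printed compound spot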
Details: anti-His Alexa647 antibody binding, higher = more signal
Answer 0 if composite z-score is under 0.3, and 1 if it is 0.3 or more.

                                   molecule  labelvalue
0  C[C@@H](ON=C1[C@H]2CCn3c(=O)n(-c4ccccc4)c(=O)n3[C@H]2[C@H](O)[C@@H]2O[C@H]12)c1cn([C@H](CO)Cc2ccccc2)nn1           1
1  CO[C@H]1COC(=O)CC=C[C@@H](C)COC(=O)[C@@H](OCc2ccccc2)C=C[C@@H]1C           1
2  CC(C)CCN1CCc2nc(-c3ccccc3)c3c(c2C1)CO[C@@H](C)C3           1
3  C[C@@H](c1ccccc1)N1C(=O)[C@H]2[C@H]3[C@H](O)[C@H](O)CC(=O)[C@@H]3CC[C@H]2C1=O           1
4  CCOC(=O)[C@H](CC(C)C)NC(=O)CCC1CC(OC(=O)NCc2cccc3ccccc23)CC2(CCCC(COC(=O)NCc3ccccc3)O2)O1 (stereo not given in full)           0

QUERY: Tell me whether composite z-score is at least 0.3 here: `CCOC(=O)CCN1C(=O)[C@H]2[C@H]3[C@H](O)[C@H](O)CC(=NNC(=O)OCC)[C@@H]3CC[C@H]2C1=O`
RESULT: 0

QUERY: Is composite z-score for `CO[C@@H]1C=CCC(=O)N2CCC[C@H]2C(=O)OC[C@H](C)C(=O)OC[C@H]1C` at or above 0.3?
RESULT: 1

QUERY: Hi, just wondering whether `CCN1C(=O)[C@H]2[C@H]3[C@H](O)[C@H](O)CC(=NNC(=O)OCc4ccc(OC)cc4)[C@H]3CC[C@H]2C1=O` shows composite z-score of 0.3 or higher.
RESULT: 0

QUERY: Answer whether composite z-score of `CC(C)C(=O)N[C@@H]1CCCN1C(=O)C=Cc1ccccc1` is greater than or equal to 0.3.
RESULT: 0

QUERY: Is reported composite z-score greater than or equal to 0.3 here: `O=C1[C@H]2[C@H]3[C@H](O)[C@H](O)CC(=NOCc4ccccc4)[C@H]3CC[C@H]2C(=O)N1Cc1ccccc1`
RESULT: 0

----------
Experiment: PSAC antagonists in infected red cells, primary screen, cell-based, P. falciparum Indochina, OD700, 18 h (AID 1157)
Settings: P. falciparum Indochina infected erythrocytes, osmotic lysis OD700, 18 h; higher = more signal, called active from +8 up or from −8 down
Param threshold (-0.1) applies to z-score; output Y when value >= threshold, N when value < threshold.

Reference set, count: 5
                                   compound  labelvalue
0  CO[C@@H]1COC(=O)CC=C[C@H](C)COC(=O)[C@H](C)NC(=O)CC=C[C@H]1C           N
1  C=C(C)C(=O)OC[C@@H]1CN2[C@@H](CC[C@@H](C)[C@@H]2c2ccc(Br)cc2)C(=O)O1           Y
2  CCOC(=O)NN=C1C[C@@H](O)[C@@H](O)[C@@H]2[C@@H]3C(=O)N(Cc4ccccc4)C(=O)[C@@H]3CC[C@@H]12           Y
3  CCOC(=O)[C@H](CC(C)C)NC(=O)CCC1CC(OC(=O)NCc2cccc3ccccc23)CC2(CCCC(COC(=O)NCc3ccccc3)O2)O1 (stereo partly specified)           Y
4  CC(C)=NOCc1ccc(-c2cn([C@@H]3COC[C@H]3O)nn2)cc1           Y

Alright, here's another compound for you.
QUERY: Exam item: decide whether the reported z-score for `COc1ccc(COC(=O)NN=C2C[C@@H](O)[C@@H](O)[C@@H]3[C@@H]4C(=O)N(C(C)(C)C)C(=O)[C@@H]4CC[C@H]23)cc1` is at least -0.1.
RESULT: N
